Ref: paper PMC6271218

# measurement_protocol: Single-dose plasma pharmacokinetics after i.g. administration
# Format: in vivo, SD rats
# condition_details: SD, rat, plasma, po; i.g. 2 mg/kg single dose, female rats; read-out: Vz/F
# Procedure: Pharmacokinetic studies of verticinone after intravenous (i.v.) and intragastrical (i.g.) administration to rats were designed to determine pharmacokinetic parameters and absolute bioavailability. […] The quantification of verticinone was performed by a LC-MS method based on the previously reported method with slight modifications. […] The pharmacokinetic parameters were calculated by the DAS 2.0 software (Chinese Pharmacological Association, Beijing, China) using a standard non-compartmental method. […]
endpoint_name: Vd/F (L/kg)
Numbers only, in L/kg.

Documented Vd/F of C[C@H]1CC[C@@H]2N(C1)C[C@H]1[C@@H]3C[C@H]4[C@@H](CC(=O)[C@H]5C[C@@H](O)CC[C@@]54C)[C@@H]3CC[C@@H]1[C@]2(C)O [verticinone, Verticinone] : 649

----------
# measurement_protocol: Plasma pharmacokinetics after i.v. administration
# Type: in vivo, SD rats
# condition_details: SD, rat, plasma, iv; i.v. 0.4 mg/kg, male rats; read-out: MRT0–t
endpoint_name: MRT last
Just the number plus its unit, please.

Documented MRT last of C[C@H]1CC[C@@H]2N(C1)C[C@H]1[C@@H]3C[C@H]4[C@@H](CC(=O)[C@H]5C[C@@H](O)CC[C@@]54C)[C@@H]3CC[C@@H]1[C@]2(C)O : 2.37 h

----------
# measurement_protocol: Single-dose plasma pharmacokinetics after i.g. administration
# Format: in vivo, SD rats
# condition_details: SD, rat, plasma, po; i.g. 1 mg/kg single dose, female rats
endpoint_name: AUC(0-t) (ng·h/mL)
One number for each entry, in ng·h/mL.

Documented AUC(0-t) of C[C@H]1CC[C@@H]2N(C1)C[C@H]1[C@@H]3C[C@H]4[C@@H](CC(=O)[C@H]5C[C@@H](O)CC[C@@]54C)[C@@H]3CC[C@@H]1[C@]2(C)O : 14.5

----------
# measurement_protocol: Single-dose plasma pharmacokinetics after i.g. administration
# Type: in vivo, SD rats
# condition_details: SD, rat, plasma, po; i.g. 1 mg/kg single dose, male rats
endpoint_name: AUC(0-t) (ng·h/mL)
Give bare numbers, in ng·h/mL.

Documented AUC(0-t) of C[C@H]1CC[C@@H]2N(C1)C[C@H]1[C@@H]3C[C@H]4[C@@H](CC(=O)[C@H]5C[C@@H](O)CC[C@@]54C)[C@@H]3CC[C@@H]1[C@]2(C)O : 159

----------
# measurement_protocol: Multiple-dose (successive i.g.) plasma pharmacokinetics
# Type: in vivo, SD rats
# condition_details: SD, rat, plasma, po; successive i.g. 2 mg/kg, female rats; read-out: MRT0–t
endpoint_name: MRT last (h)
Answers are plain numbers, in h.

Documented MRT last of C[C@H]1CC[C@@H]2N(C1)C[C@H]1[C@@H]3C[C@H]4[C@@H](CC(=O)[C@H]5C[C@@H](O)CC[C@@]54C)[C@@H]3CC[C@@H]1[C@]2(C)O [verticinone, Verticinone] : 2.24

----------
# measurement_protocol: Single-dose plasma pharmacokinetics after i.g. administration
# Type: in vivo, SD rats
# condition_details: SD, rat, plasma, po; i.g. 4 mg/kg single dose, male rats; read-out: t1/2z (converted)
endpoint_name: half-life (h)
Answers are plain numbers, in h.

Documented half-life of C[C@H]1CC[C@@H]2N(C1)C[C@H]1[C@@H]3C[C@H]4[C@@H](CC(=O)[C@H]5C[C@@H](O)CC[C@@]54C)[C@@H]3CC[C@@H]1[C@]2(C)O [verticinone, Verticinone] : 2.33
